These data points were gathered from patent US12712053B2.

# assay_info: in vitro
# conditions_used: human, HEK295 cells
quantity: viability at 10 % ethanol

Query: Entry under review: "CCO" . Reported viability at 10 % ethanol?
Reply: 0%

----------
# assay_info: in vitro
# conditions_used: human, HEK295 cells
quantity: viability at 6 % ethanol (%)
Quick reminder: number only, in %, skip the unit.

Query: I would be grateful if you could share the reported viability at 6 % ethanol for CCO [ethanol] .
Reply: 41.4

----------
# assay_info: in vitro
# conditions_used: human, HEK295 cells
quantity: viability at 3 % ethanol (%)
Give the number; % is assumed, so skip it.

Query: Which viability at 3 % ethanol is listed for "CCO" ?
Reply: 70.8
